Organism: Rattus norvegicus
Experiment: Negative logarithm of the molar concentration of compound required to relax rat aorta precontracted with 30 mM KCl by 50%
Assay type: functional
// EC50 lookup, one value per entry
# output: number + unit

Example results:
[
  {
    "compound": "CC(N/C(=N\\C#N)Nc1ccncc1)C(C)(C)C (centres undefined) [PINACIDIL ANHYDROUS]",
    "EC50": "724 nM"
  },
  {
    "compound": "C/N=C(/NC#N)C1=CC(C)(C)Oc2ccc(C#N)cc21",
    "EC50": "339 nM"
  }
]

**Q:** Annotate the compound "CNC(=O)C1=CC(C)(C)Oc2ccc(C#N)cc21" with its measured EC50.
**A:** 263 nM

**Q:** Annotate the compound "CC(C)(C)/N=C(/NC#N)Nc1cccnc1" with its measured EC50.
**A:** 91.2 nM

---

Species: Rattus norvegicus
Assay: Percent intrinsic activity was measured in rat aorta
Format: functional
endpoint label: IA (%)
Entry rule: numbers only, all in %.

Example results:
[
  {
    "compound": "C/N=C(/NC#N)C1=CC(C)(C)Oc2ccc(C#N)cc21",
    "obs value": 73
  },
  {
    "compound": "CC1(C)Oc2ccc(C#N)cc2[C@@H](N2CCCC2=O)[C@@H]1O [CROMAKALIM]",
    "obs value": 74.7
  },
  {
    "compound": "CNC(=O)C1=CC(C)(C)Oc2ccc(C#N)cc21",
    "obs value": 66.6
  }
]

**Q:** Annotate the compound CC(N/C(=N\C#N)Nc1ccncc1)C(C)(C)C (stereo unspecified) [PINACIDIL ANHYDROUS] with its measured IA.
**A:** 91.9

**Q:** Annotate the compound "CC(C)(C)/N=C(/NC#N)Nc1cccnc1" with its measured IA.
**A:** 88

**Q:** Annotate the compound "C/N=C(/S)C1=CC(C)(C)Oc2ccc(C#N)cc21" with its measured IA.
**A:** 89
